B1: ALDH8A1 (parent)
chain: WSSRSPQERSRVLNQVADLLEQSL

Variants of: B1
EXPERIMENT DESCRIPTION: protein stability index of a GFP-peptide fusion (GPS, HEK-293T) (PSI 1-6); higher = more stable;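 further: lentivirally expressed fusions sorted by FACS into six bins by GFP to DsRed ratio, PSI derived from sequencing read proportions per bin multiplied by bin number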
RECORDED CONDITIONS: c terminus: a fixed tail appended
Outcome: y for protein stability index of at least 3; n for anything lower.

- E21T: n
- S3A: n
- S10E: y

Identify whether the reported protein stability index of the following variant is 3 or greater: W1C n

Try S10P next. n

Request: Q7Y n

// repeat for Q7T and report n

Try the variant S5Y n

Consider next the variant S10Q in the same way. n

N14Y , same question. y

V12R , same question. n

Same lookup for S2G , please. n

And W1F ? n

Now this one: S23M n

Next: A17M n

Would you mind doing S2A as well? n

Lookup A17G y

And then V12G , what is it? y

Another: D18T n

Now try W1A . y

Field entry: E21C n

Then R9P ? y

# repeat for D18N n

Another variant to look at: L20T y

# repeat for N14C n

Repeat with S10F n

Entry to check: D18F n

The reported measurements were obtained from the supplement of paper PMC10567573.
